System: Klebsiella pneumoniae
Procedure Summary: Antibacterial activity against Klebsiella pneumoniae by microplate alamar blue assay
Type: functional
Record form. Attribute: MIC90. Fill in for each entry.

Inquiry: Please look up its MIC90: C[C@H]1c2cccc(O)c2C(=O)C2=C(O)[C@]3(O)C(=O)C(C(N)=O)=C(O)[C@@H](N(C)C)[C@@H]3[C@@H](O)[C@@H]21 [DOXYCYCLINE ANHYDROUS]
Reply text: 0.34 µM

Inquiry: Cool, now COc1c(N2C[C@@H]3CCCN[C@@H]3C2)c(F)cc2c(=O)c(C(=O)O)cn(C3CC3)c12 [MOXIFLOXACIN]
Reply text: < 0.195 µM

Inquiry: Proceed to CC(C)N(C(=O)CCNCCC(c1ccccc1)c1ccccc1)C(C)C
Reply text: > 100 mg/L

Inquiry: Ok, now CC(C)N(C(=O)CCNCCCC1CCCC1)C(C)C
Reply text: > 100 mg/L

====

Procedure Summary: Cytotoxicity against African green monkey Vero cells measured after 3 days by resazurin dye based fluorescence assay
Format: toxicity, cell-based
Condition Parameters: African green monkey (Chlorocebus sabaeus)
Answer each item with its documented IC50 at 3 days.
A number alone suffices; assume µM.

Inquiry: What value of IC50 at 3 days has been reported for the following compound? COc1nc2ccc(Br)cc2cc1[C@@H](c1ccccc1)[C@@](O)(CCN(C)C)c1cccc2ccccc12
Reply text: 51.4

Inquiry: Same lookup for Nc1c2c(nc3ccccc13)CCCC2 , please.
Reply text: 90.7

Inquiry: Follow-up entry: CC(C)N(C(=O)CCNCCCC1CCCC1)C(C)C
Reply text: 69.7

Inquiry: Query CC(C)N(C(=O)CCNCCC(c1ccccc1)c1ccccc1)C(C)C next
Reply text: 45.9

Inquiry: Next: CC/C(=C(\c1ccccc1)c1ccc(OCCN(C)C)cc1)c1ccccc1
Reply text: 13.9

Inquiry: Ok, now N#CC(C#N)=NNc1cccc(Cl)c1 [CARBONYL CYANIDE M-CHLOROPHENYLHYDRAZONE]
Reply text: 10.8

====

Test system: Enterococcus faecium
Procedure Summary: Antibacterial activity against Enterococcus faecium by microplate alamar blue assay
Format: functional
Assignment: determine reported MIC90 for the given molecules.

Inquiry: Look up MIC90 for this molecule: C[C@H]1c2cccc(O)c2C(=O)C2=C(O)[C@]3(O)C(=O)C(C(N)=O)=C(O)[C@@H](N(C)C)[C@@H]3[C@@H](O)[C@@H]21 [DOXYCYCLINE ANHYDROUS]
Reply text: < 0.195 µM

Inquiry: Try this molecule next: CC(C)N(C(=O)CCNCCCC1CCCC1)C(C)C
Reply text: 49.2 µg/mL

Inquiry: Queued: COc1c(N2C[C@@H]3CCCN[C@@H]3C2)c(F)cc2c(=O)c(C(=O)O)cn(C3CC3)c12
Reply text: 1.58 µM

Inquiry: Try CC(C)N(C(=O)CCNCCC(c1ccccc1)c1ccccc1)C(C)C next.
Reply text: 95.8 µg/mL

====

Tested on: Mycobacterium tuberculosis
Procedure Summary: Antitubercular activity against Mycobacterium tuberculosis KMA 5282 by microplate alamar blue assay
Format: functional
Recorded Metric: MIC90 (µg/mL)
Respond with the bare value in µg/mL.

Inquiry: State the recorded MIC90 for this entry: CC(C)N(C(=O)CCNCCC(c1ccccc1)c1ccccc1)C(C)C
Reply text: 8.73

Inquiry: Do the same for CC(C)N(C(=O)CCNCCCC1CCCC1)C(C)C please
Reply text: 4.37

Inquiry: CC(C)N(C(=O)CNCc1cccc2ccccc12)C(C)C , same question.
Reply text: 93.6

====

Hi there, I'd appreciate the recorded MIC90 for every entry that follows.
System: Mycobacteroides chelonae
Procedure Summary: Antibacterial activity against Mycobacteroides chelonae ATCC 35752 incubated for 3 days by microplate alamar blue assay
Assay type: functional
Condition Parameters: ATCC 35752, 72 h, time 3 day

Inquiry: Which MIC90 value belongs to NNC(=O)c1ccncc1 [ISONIAZID] ?
Reply text: > 8 µM

Inquiry: Consider next the compound CC(C)N(C(=O)CCNCCC(c1ccccc1)c1ccccc1)C(C)C in the same way.
Reply text: > 100 µg/mL

Inquiry: And CC(C)N(C(=O)CCNCCCC1CCCC1)C(C)C ?
Reply text: > 100 µg/mL
